- test: NCI Yeast Anticancer Drug Screen. Data for the rad50 strain (AID 155);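 also: 0% = growth of vehicle-only cultures of the same strain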
- test parameters: S. cerevisiae rad50 strain growth inhibition; at 50.0 µM; hits give high values
The panel holds about 79,000 compounds, 15% with a hit somewhere; the sample as a whole holds those more often.
Respond with criterion met for growth inhibition values of -20% and above, criterion not met for values below.

Take a look at these entries with their results.
* N#CC1(C#N)N[C@@H](c2ccsc2)[C@H]2C(=O)N(c3ccccc3)C(=O)[C@H]21 | criterion met
* CC(/C=N/N1C(=O)c2ccccc2C1=O)c1ccccc1 (stereo unspecified) | criterion met
* CCOC(=O)NC(C)(C)CN(C(=O)OCC)c1ccccc1 | criterion not met
* O=C(Cc1cccc2ccccc12)N/N=C/c1ccc2c(c1)CCC2 | criterion met
* Cc1ccc(/C=N/Nc2ccccn2)s1 | criterion met

Lab note: next compound to report on.
Quick check: does CCCCCCCCCCCCCCCCOc1ccc(C(=O)NN)cc1N have growth inhibition greater than or equal to -20%?
criterion met

----------
Quick reference: growth inhibition of the listed items.
- test: NCI Yeast Anticancer Drug Screen. Data for the mec2-1 strain (AID 157)
- test parameters: S. cerevisiae mec2-1 strain, at 50.0 µM, hits give high values
Compounds without any hit were thinned out: in the full panel of roughly 79,000, 15% have a hit.
Number only, in %; omit the unit.

Below are worked cases with known answers.
- C=C(CCC(C(=O)O)C1CCC2(C)C3=C(CCC12C)C1(C)CCC(O)C(C)(C)C1CC3)C(C)C (configuration not stated): -29.5
- O=C(Cc1nc2ccc(C(=O)c3ccccc3)cc2[nH]c1=O)C(=O)Nc1ccccc1[N+](=O)[O-]: -15.6
- CCC1OC2(C)CC(C#N)(C#N)C1(C#N)C(=N)O2 (configuration not stated): -3.9

Let me know recorded growth inhibition for OCC(CO)(CO)COCC(CO)(CO)COCC(CO)(CO)CO , thanks.
-42.5

Let me know recorded growth inhibition for O=[N+]([O-])c1ccc(-n2[nH]nnc2=S)cc1 , thanks.
-25

Let me know recorded growth inhibition for S=C(S)N1CCC(CCCC2CCN(C(=S)S)CC2)CC1 , thanks.
-22.1

Let me know recorded growth inhibition for COc1cc(/C=N/N2CCCCC2)cc(OC)c1OC , thanks.
-16.6

Let me know recorded growth inhibition for CN(c1ccccc1Cl)S(C)(=O)=O , thanks.
-42.6

----------
- test: NCI Yeast Anticancer Drug Screen. Data for the bub3 strain (AID 167)
- test parameters: S. cerevisiae bub3 mutant strain, at 50.0 µM, hits give high values
This is part of a sample that, as a whole, favours compounds with a hit. Of some 79,000 tested, about 15% had one in any assay.
Quick reference: growth inhibition of the listed items.
Number only, in %; omit the unit.

- COc1cc2c(cc1-c1coc3cc(O)ccc3c1=O)OCO2: -14.3

// below: growth inhibition requested for another compound
Let me know recorded growth inhibition for COc1ccc(C)cc1NC(=S)C#N , thanks.
1.3

----------
- test: NCI Yeast Anticancer Drug Screen. Data for the mlh1 rad18 strain (AID 175)
- test parameters: S. cerevisiae mlh1 rad18 strain growth inhibition; at 50.0 µM; hits give high values
- Method: Growth inhibition of yeast strains with defined genetic alterations is measured as a screen for potential anti-cancer activity. Selected strains with alterations in DNA damage repair or cell cycle control were exposed to compounds and growth inhibition was measured relative to vehicle treated controls. The strain used in this assay is mlh1 rad18
The panel holds about 79,000 compounds, 15% with a hit somewhere; the sample as a whole holds those more often.
property measured: growth inhibition (%)
Number only, in %; omit the unit.

Let me know recorded growth inhibition for Cc1ccc(CNc2cc(C)ccn2)cc1 , thanks.
26.9

Let me know recorded growth inhibition for N#[N+]c1ccc2c(S(=O)(=O)O)cccc2c1O , thanks.
-25.7

Let me know recorded growth inhibition for O=C(/C(=N/N=C\c1ccc([N+](=O)[O-])cc1)c1ccccc1)c1ccccc1 , thanks.
-1.25

----------
Quick reference: growth inhibition of the listed items.
- test: NCI Yeast Anticancer Drug Screen. Data for the sgs1 mgt1 strain (AID 161);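 also: 0% = growth of cultures given vehicle only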
- test parameters: S. cerevisiae sgs1 mgt1 strain, at 50.0 µM, hits give high values
Compounds without any hit were thinned out: in the full panel of roughly 79,000, 15% have a hit. Calls of active or inactive are those of the source. Cut-off read from the data, not from the text of the source: active = growth inhibition above about 70%; inactive = the rest.

Below are worked cases with known answers.
• O=c1c2ccccc2nc(-c2ccccc2)n1/N=C/c1ccccc1[N+](=O)[O-] = 26.8% (inactive)
• COc1ccc2nc(N/N=C/c3ccc(C)s3)cc(C)c2c1 = 15.6% (inactive)

Let me know recorded growth inhibition for Cc1cc2nn(C3CCCO3)nc2cc1C (stereo unspecified) , thanks.
-21.8% (inactive)

Let me know recorded growth inhibition for Cc1ccc(OCC2OC(n3cnc4c(Cl)nc(Cl)nc43)CC2Oc2ccc(C)cc2)cc1 (stereo unspecified) , thanks.
23.1% (inactive)

Let me know recorded growth inhibition for CCN(CC)C(=O)c1cccnc1 , thanks.
-33% (inactive)

Let me know recorded growth inhibition for O=C1c2cccnc2-c2nccc3ccnc1c23 , thanks.
63% (inactive)

Let me know recorded growth inhibition for N#Cc1nc(C(F)(F)F)oc1N , thanks.
-0.95% (inactive)

----------
- test: NCI Yeast Anticancer Drug Screen. Data for the bub3 strain (AID 167)
- test parameters: S. cerevisiae bub3 mutant strain, at 50.0 µM
Compounds without any hit were thinned out: in the full panel of roughly 79,000, 15% have a hit. Active and inactive are the calls of the source. No stated cut-off is given here; in the data, active means growth inhibition above about 70%; inactive means the rest.
Classes to choose from: active, inactive

* N#CC(=S)Nc1ccc(F)cc1 | inactive

Recorded test call requested for CC(C)(C)c1cc(C2COC(=O)COCCOCC(=O)OCCOCCO2)cc(C(C)(C)C)c1O (stereo not given)
inactive

Recorded test call requested for COc1ccc(-c2nc3ccccc3c(=S)n2OC(C)=O)cc1
active

Recorded test call requested for O=C(O)COc1cc(-c2ccccc2F)nc2cc3c(cc12)OCO3
inactive

----------
- test: NCI Yeast Anticancer Drug Screen. Data for the rad50 strain (AID 155);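 also: 0% = growth of vehicle-only cultures of the same strain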
- test parameters: S. cerevisiae rad50 strain growth inhibition; at 50.0 µM
Compounds without any hit were thinned out: in the full panel of roughly 79,000, 15% have a hit. Active and inactive are the calls of the source. Rule as the data show it: active = growth inhibition above about 70%; inactive = the rest. Where a SMILES comes first, the peptide text is derived from it. [ ]: non-standard residue; d: D form. The star is where a group is joined. ξ: configuration not given here. ξV = CC(C)C(N)C(=O)O; ClAc = O=C(CCl)*
Classes to choose from: active, inactive

Take a look at these entries with their results.
- CC[n+]1c(C)n(Cc2ccc(C(=O)O)cc2)c2cc(F)ccc21: inactive
- Cc1coc2c1C(OC(=O)C(C)C)C1(C)C(C)CCC(O)C1C2=O (stereo not drawn): inactive
- CC(C)CC(Br)C(=O)NC(CC(C)C)C(=O)O (stereo not drawn): inactive
- O=C1c2ccccc2-c2c1c1ccccc1c(=O)n2-c1cccnc1: inactive
- C(=NCC1CCC(CN=Cc2ccco2)CC1)c1ccco1 (stereo not drawn): inactive
- COc1cc(/C=N/NC(=O)c2ccncc2)cc(OC)c1OC: inactive
- CC(C)C(NC(=O)CNC(=O)CCl)C(=O)O (stereo not drawn) (ClAc-Gly-[ξV]-OH): inactive
- COc1ccc(C)cc1NC(=S)C#N: inactive
- C#Cc1c(-c2c[nH]c3ccccc23)ccc[n+]1C: inactive
- CCN(CC)CCN(C)CC(=O)Nc1ccccc1C: inactive

Recorded test call requested for O=C1c2cccnc2-c2nccc3ccnc1c23
active

Recorded test call requested for c1ccc(-c2nc3ccc4ccccc4c3nc2-c2ccccc2)cc1
inactive

Recorded test call requested for O=C(/C=C(\[O-])c1ccccc1)CCCCCCC(=O)/C=C(\[O-])c1ccccc1.O=C(/C=C(\[O-])c1ccccc1)CCCCCCC(=O)/C=C(\[O-])c1ccccc1.O=C(/C=C(\[O-])c1ccccc1)CCCCCCC(=O)/C=C(\[O-])c1ccccc1.[Nd+3].[Nd+3]
inactive

Recorded test call requested for COc1c(OC)c(OC)c2c(c1OC)c(=O)c1ccccc1n2C
inactive

Recorded test call requested for CCC(=O)CC1CCCC(CC(=O)CC)N1C (stereo not drawn)
inactive

----------
- test: NCI Yeast Anticancer Drug Screen. Data for the cln2 rad14 strain (AID 165);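 also: 0% = growth equal to vehicle treated cultures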
- test parameters: S. cerevisiae cln2 rad14 strain, at 50.0 µM, hits give high values
The panel holds about 79,000 compounds, 15% with a hit somewhere; the sample as a whole holds those more often.
Respond with True for growth inhibition values of 6% and above, False for values below.

Take a look at these entries with their results.
- COc1c(OC)c(OC)c2c(c1OC)c(=O)c1ccccc1n2C: True
- CC(=O)C(/C=N/C(N)=O)=C(/C)O: False
- Cc1ccc(/C=C2/N=C(N/N=C\c3ccccc3)NC2=O)cc1: False
- COC(=O)C(=O)C(C(=O)C(=O)Nc1ccccc1C(C)=O)c1nc2ccc(C(=O)c3ccccc3)cc2[nH]c1=O (stereo unspecified): True
- N=C1N=C(N)CS1: True

Quick check: does CCO/C=N\C1=C(C#N)SC2=N/C(=C\c3ccc(OC)cc3)C(=O)N21 have growth inhibition greater than or equal to 6%?
True
